Assay Target: human PDE4B1 (Homo sapiens)
Construct: host or cells: Sf9 cells
Sequence (Q07343 whole entry): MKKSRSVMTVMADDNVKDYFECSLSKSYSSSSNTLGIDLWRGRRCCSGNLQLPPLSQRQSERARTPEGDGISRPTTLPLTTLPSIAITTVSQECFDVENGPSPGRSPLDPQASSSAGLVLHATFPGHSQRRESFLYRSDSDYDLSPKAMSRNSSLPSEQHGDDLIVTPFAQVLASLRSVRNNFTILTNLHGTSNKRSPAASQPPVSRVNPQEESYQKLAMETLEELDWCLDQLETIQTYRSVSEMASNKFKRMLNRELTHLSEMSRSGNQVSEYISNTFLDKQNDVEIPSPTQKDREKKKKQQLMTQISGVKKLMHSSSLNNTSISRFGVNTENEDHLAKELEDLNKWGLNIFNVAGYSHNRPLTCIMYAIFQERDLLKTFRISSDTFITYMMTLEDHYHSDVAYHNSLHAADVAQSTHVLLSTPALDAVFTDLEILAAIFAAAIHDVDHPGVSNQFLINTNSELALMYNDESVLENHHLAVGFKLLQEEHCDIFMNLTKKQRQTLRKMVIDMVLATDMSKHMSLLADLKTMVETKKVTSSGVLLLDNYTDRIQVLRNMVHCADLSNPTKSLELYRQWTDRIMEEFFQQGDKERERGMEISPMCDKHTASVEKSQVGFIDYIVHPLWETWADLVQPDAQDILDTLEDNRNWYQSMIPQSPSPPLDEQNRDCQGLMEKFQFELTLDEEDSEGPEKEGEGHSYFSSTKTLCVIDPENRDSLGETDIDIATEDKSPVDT
Test: cAMP HTRF assay to determine the activity of hPDE4B1
Format: biochemical
Measurement Context: human recombinant PDE4B1, cAMP 40 nM, averaged results (Table 5); read-out: PDE4B IC50
Procedure: 1. Determination of the PDE4B IC50 Values with a cAMP HRTF® Assay to Determine the Activity of hPDE4B1 The inhibiting effect of the compounds on the enzyme activity of human PDE4B1 is measured by the quantification of 5′-AMP, which is formed from 3′,5′-adenosine monophosphate (cAMP). Human recombinant enzyme, expressed in Sf9 cells, and the HTRF (homogeneous time-resolved fluorescence) detection method are used in the assay. […]
Property Name: pIC50
One number for each entry, as −log10 of the molar value.

Quick one: give measured pIC50 for "O=C(O)Cc1ccc(Nc2nc(-c3cccc(Br)c3)nc3c2CCC3)cc1"
6.66

Quick one: give measured pIC50 for "COc1ccc(-c2nc3c(c(Nc4ccc(CC(=O)O)cc4)n2)CCC3)cc1"
6.42

Quick one: give measured pIC50 for "O=C(O)Cc1ccc(Nc2nc(-c3cccc(F)c3)nc3c2CCC3)cc1"
6.68

Quick one: give measured pIC50 for "O=C(O)Cc1ccc(Nc2nc(-c3ccc(OC(F)(F)F)cc3)nc3c2CCC3)cc1"
5.51

Quick one: give measured pIC50 for "O=C(O)Cc1ccc(Nc2nc(-c3ccc(Cl)cc3)nc3c2CCC3)cc1"
6.06

The following compounds each have a reported value; give each one's pIC50.
1. O=C(O)c1ccc(Nc2nc(-c3cccc(Cl)c3)nc3c2CCC3)cc1
2. O=C(O)Cc1ccc(Nc2nc(-c3cccc(Cl)c3)nc3c2CCCC3)cc1
3. O=C(O)Cc1ccc(Nc2nc(-c3ccccc3)nc3c2CCC3)cc1
4. O=C(O)c1ccc(Nc2nc(-c3ccc(F)c(F)c3)nc3c2CCC3)cc1
5. COc1ccc(-c2nc3c(c(Nc4ccc(C(=O)O)cc4)n2)CCC3)cc1F
6. CCOc1ccc(-c2nc3c(c(Nc4ccc(CC(=O)O)cc4)n2)CCC3)cc1

1. 6.19
2. 6.26
3. 6.16
4. 6.41
5. 6.68
6. 6.22
